tested_target: Serotonin 3 (5-HT3) receptor
experimental_details: Antagonistic activity against Serotonin 5-hydroxytryptamine 3 receptor in isolated rabbit vagus nerve (RVN)
Format: functional, tissue-based, Oryctolagus cuniculus
assay_metric: pA2

Recorded pA2, per entry:
COc1cc(N)c(Cl)cc1C(=O)N[C@H]1CCN(CCCOc2ccc(F)cc2)C[C@H]1OC [CISAPRIDE] : 6.5
Nc1c(Cl)cc(C(=O)NC2CN3CCC2CC3)c2ncccc12 (centres undefined) : 9
Nc1c(Cl)cc(C(=O)NC2CN3CCC2CC3)c2nsnc12 (centres undefined) : 8.9

# next compound below
Answer briefly: pA2 recorded on Serotonin 3 (5-HT3) receptor for Nc1c(Cl)cc(C(=O)NC2CCN3CCCC2C3)c2nsnc12 (centres undefined) 7.7
